System: UACC-257 melanoma
Assay: NCI tumour cell line growth inhibition, 48 h
Reported TGI values follow for various compounds
Reply numerically in µM, unit not repeated.

These recorded examples may help you get a feel for the data.
1. Nc1cc2ccccc2c(O)c1O : 18.1
2. CN(C)c1ccc(N=Nc2ccc(Br)cn2)c(O)c1 : 7.84
3. Cc1cc(NS(=O)(=O)c2ccc(NC(=O)c3ccc(Cl)c4c(Nc5ccc(S(N)(=O)=O)cc5)c5ccccc5nc34)cc2)no1 : 50.9

Proceed to the following item.
// query Given the entry Cc1ccc(/C(=C/C=C(/C#N)C(N)=O)Sc2ncnn2C)cc1 , report its measured TGI.
// result 33.6
